- Target or test system: T1, Xyr1A824V (Trichoderma reesei, UniProt G0RLE8 1-920, A804V)
- T1 sequence: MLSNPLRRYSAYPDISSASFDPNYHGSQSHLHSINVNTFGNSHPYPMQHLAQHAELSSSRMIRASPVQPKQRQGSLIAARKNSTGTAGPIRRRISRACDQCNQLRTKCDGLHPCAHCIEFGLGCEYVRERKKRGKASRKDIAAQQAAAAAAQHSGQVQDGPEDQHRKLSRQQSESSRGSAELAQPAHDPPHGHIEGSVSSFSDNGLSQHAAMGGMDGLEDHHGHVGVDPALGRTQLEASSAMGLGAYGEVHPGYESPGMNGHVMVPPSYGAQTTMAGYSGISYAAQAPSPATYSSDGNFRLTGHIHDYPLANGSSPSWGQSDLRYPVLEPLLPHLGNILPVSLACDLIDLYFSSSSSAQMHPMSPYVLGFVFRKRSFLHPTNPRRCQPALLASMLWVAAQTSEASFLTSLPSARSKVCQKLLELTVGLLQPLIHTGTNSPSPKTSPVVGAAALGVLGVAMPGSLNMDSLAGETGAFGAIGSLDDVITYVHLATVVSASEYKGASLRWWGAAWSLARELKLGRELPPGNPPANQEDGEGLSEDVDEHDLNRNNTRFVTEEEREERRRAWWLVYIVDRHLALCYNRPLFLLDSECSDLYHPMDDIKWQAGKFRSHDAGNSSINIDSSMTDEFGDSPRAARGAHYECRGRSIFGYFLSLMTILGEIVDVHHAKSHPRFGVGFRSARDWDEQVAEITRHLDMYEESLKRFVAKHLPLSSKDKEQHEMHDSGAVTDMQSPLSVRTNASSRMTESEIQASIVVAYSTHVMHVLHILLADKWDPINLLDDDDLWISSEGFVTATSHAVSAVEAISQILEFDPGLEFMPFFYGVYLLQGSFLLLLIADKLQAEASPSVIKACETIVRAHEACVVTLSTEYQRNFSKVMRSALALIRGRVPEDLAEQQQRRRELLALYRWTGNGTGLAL
- Measurement notes: CD spectroscopy titration (222 nm); no carbohydrate; Engel fit, n = 2; Buffer A: 50 mM Tris, 200 mM NaCl, 50 mM NaH2PO4, 10% glycerol, pH 7.5, 22 °C; CD: 250 nM protein, DNA 0-900 nM; EMSA: 15 ng probe, 10 min, 0.2 µg/µL p(dIdC) plus unspecific duplex CKT067/CKT068
- Protocol conditions: protein: recombinant; tags: C-terminal His6; chain copies: 2; blunt
Observation type: pKd
Give bare numbers, as −log10 of the molar value.

State its pKd: xyn1 URR fragment (-430 to -396), Pxyn1f/Pxyn1r (dsDNA) DNA 1: TTGGCAGGCTAAATGCGACATCTTAGCCGGATGCA DNA 2: TGCATCCGGCTAAGATGTCGCATTTAGCCTGCCAA
6.28

All values here come from paper PMC9784857.
